Tested on: U251 CNS
Experiment: NCI tumour cell line growth inhibition, 48 h
Where a SMILES comes first, the peptide text is derived from it. [ ]: non-standard residue; d: D form.
QUANTITY_KIND: TGI

Query :: What TGI appears in the records for this compound with U251 CNS? `C=C1C(=O)O[C@@H]2/C=C(/C)[C@@H](OC(C)=O)C[C@@H](O)/C(C)=C\[C@@H](OC(=O)[C@]3(C)O[C@@H]3C)[C@@H]12`
Result :: 31.3 µM

Query :: What TGI appears in the records for this compound with U251 CNS? Cc1cn(C2CC(O)C(Cn3nncc3Cn3nc(Br)c(=O)[nH]c3=O)O2)c(=O)[nH]c1=O (stereo not given)
Result :: > 100 µM

Query :: What TGI appears in the records for this compound with U251 CNS? `C=C(C)C1(Sc2ccc(OC)cc2)CC1`
Result :: > 100 µM

Query :: What TGI appears in the records for this compound with U251 CNS? `Cc1nnc(N/N=C/c2ccc([N+](=O)[O-])o2)[nH]c1=O`
Result :: > 100 µM

Query :: What TGI appears in the records for this compound with U251 CNS? COc1cc(C2c3cccc4cccc(c34)C3CCC(=O)N32)cc(OC)c1O (stereo not given)
Result :: > 50 µM

Query :: What TGI appears in the records for this compound with U251 CNS? `Cc1cc(N(CCC#N)CCC#N)ccc1/C(N=Nc1ccc(C(=O)O)cc1)=N\NC(=O)c1ccccc1`
Result :: > 100 µM

Query :: What TGI appears in the records for this compound with U251 CNS? `COc1cc2ncnc(Oc3ccc(NC(=O)Nc4ccc(CN5CCOCC5)c(C(F)(F)F)c4)c4ccccc34)c2cc1OC`
Result :: 4.01 µM

Query :: What TGI appears in the records for this compound with U251 CNS? `Cc1ccc(/C=c2\c(=O)[nH]c3nc4ccccc4c(=O)n23)cc1`
Result :: 38 µM

Query :: What TGI appears in the records for this compound with U251 CNS? `c1ccc2c(N=NSc3ncnc4nc[nH]c34)c3ccccc3nc2c1`
Result :: 10.9 µM

Query :: What TGI appears in the records for this compound with U251 CNS? `CC(C)[C@@H](C(=O)O[C@@H]1/C=C/C(=O)O[C@@H](C)CCC/C=C/[C@@H]2C[C@H](O)C[C@H]21)N(C)C`
Result :: > 100 µM

Query :: What TGI appears in the records for this compound with U251 CNS? COC(=O)NC(Cc1ccccc1)NC(=O)OC(C)(C)C (stereo not given)
Result :: > 100 µM

Query :: What TGI appears in the records for this compound with U251 CNS? CCCCCCCCCC1CC(=O)OC2=C1C(=O)CCC2 (stereo not given)
Result :: > 100 µM

Query :: What TGI appears in the records for this compound with U251 CNS? `C=CC(=O)N1C/C(=C\c2ccc(OC)cc2)C(=O)/C(=C/c2ccc(OC)cc2)C1`
Result :: 6.43 µM

Query :: What TGI appears in the records for this compound with U251 CNS? `COc1ccc(C(=O)/C=C/c2ccc(OCc3cccc(C(F)(F)F)c3)c(OC)c2)cc1OC`
Result :: > 1000 µM

Query :: What TGI appears in the records for this compound with U251 CNS? `N#CC1=C(O)NC(O)=C(C#N)C1c1c(Cl)cccc1Cl`
Result :: > 100 µM

Query :: What TGI appears in the records for this compound with U251 CNS? COc1ccccc1-c1csc(CCC(N)C(=O)O)n1 (stereo not given)
Result :: > 100 µM

Query :: What TGI appears in the records for this compound with U251 CNS? COC(=O)C1=C(C)NC(=S)NC1c1ccc(N(CCCl)CCCl)cc1Cl (stereo not given)
Result :: > 100 µM

Query :: What TGI appears in the records for this compound with U251 CNS? CC(=O)OC1CC2(C)C(=CC1C1SCCS1)CCC1C2CCC2(C)C(OC(C)=O)CCC12 (stereo not given)
Result :: > 100 µM

Query :: What TGI appears in the records for this compound with U251 CNS? OC(c1cc(C(F)(F)F)nc2c(Cl)cc(Cl)cc12)C1CCCCN1 (stereo not given)
Result :: > 48.3 µM

Query :: What TGI appears in the records for this compound with U251 CNS? CC(C)C[C@H](NC(=O)[C@H](CC(C)C)NC(=O)[C@@H](Cc1c[nH]c2ccccc12)NC(=O)[C@H](Cc1ccccc1)NC(=O)[C@@H](Cc1c[nH]c2ccccc12)NC(=O)[C@H](CCC(N)=O)NC(=O)[C@@H](CCC(N)=O)NC(=O)[C@@H]1CCCN1C(=O)[C@@H](CCCCN)NC(=O)[C@H]1CCCN1C(=O)[C@H](N)CCCN=C(N)N)C(N)=O (H-[dR][dP][dK]P[dQ]Q[dW]F[dW]LL-NH2)
Result :: > 93.2 µM

Query :: What TGI appears in the records for this compound with U251 CNS? `[N-]=[N+]=C(C(=O)CN1CCCC1=O)S(=O)(=O)c1ccccc1`
Result :: > 100 µM

Query :: What TGI appears in the records for this compound with U251 CNS? COc1cc2c(cc1OC)C(Cl)C(c1ccc(Br)cc1)=C2Cl (stereo not given)
Result :: 24.8 µM

Query :: What TGI appears in the records for this compound with U251 CNS? `CC1(C)CC(=O)C(CC2C(=O)CCCC2=O)C(=O)C1`
Result :: > 100 µM

Query :: What TGI appears in the records for this compound with U251 CNS? `NS(=O)(=O)c1nnc(NS(=O)(=O)c2cccc3cccnc23)s1`
Result :: > 100 µM

Query :: What TGI appears in the records for this compound with U251 CNS? CC1(C)CCCCCC(O)C(O)CCC(C)(C)C1=O (stereo not given)
Result :: > 100 µM

Source of measurements: PubChem BioAssay (NCI)
